- Test system: FGFR2
- study.conditions: concentration: 1 μM, replicates: in singlicate; n = 1;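 note: KINOMEscan kinase panel screen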
property.name: %Inh
Kindly report the value followed by its unit.

Complete the entry with %Inh for `Nc1nc(-c2ccc3c(N)n[nH]c3c2)cc(N2CCCCC2)n1`
0%

Answer with the recorded %Inh for the compound listed here: `Cn1ccc2ncnc(Nc3ccc(Oc4cccc(Cl)c4)c(Cl)c3)c21`
6%

State, in one line, measured %Inh of `COC(=O)c1c(-c2ccccc2)c2cc(Cl)ccc2c(=O)n1Cc1ccc(S(C)(=O)=O)cc1`
8%

Specify measured %Inh for `c1ccc(-c2ccc3c(-c4ccnc(Nc5ccc6c(c5)OCCO6)n4)cnn3n2)cc1` .
0%

Report measured %Inh; entry is `Cl.c1ccc(Cn2ncc3cc(Nc4ncnc5ccccc45)ccc32)cc1`
0%

// fetch %Inh given entry `Clc1ccc(-c2cc(-c3c[nH]nc3-c3ccccn3)ccn2)cc1`
0%

Supply reported %Inh belonging to this compound: `O=C(CCO)NCCn1ccc2ncnc(Nc3ccc(Oc4cccc(C(F)(F)F)c4)c(Cl)c3)c21`
0%

Please give the documented %Inh of COc1ccc(Nc2nccc(N3CCC(NC(=O)c4cccc(NC(C)=O)c4)C3)n2)cc1 (stereo not drawn)
37%

Report measured %Inh; entry is `Cn1ccc2ncnc(Oc3ccc(NC(=O)Nc4cccnc4)c(Cl)c3)c21`
0%

---

- Test system: FLT3
- study.conditions: concentration: 1 μM, replicates: in singlicate; n = 1
property.name: %Inh

Give reported %Inh value for `COC(=O)c1cccc(NC(=O)NCCNc2ccnc(Nc3ccc(F)cc3)n2)c1`
0%

Give %Inh for the following compound: `O=C(Nc1ccccc1)Nc1ccc(Oc2ccc3nccn3n2)cc1`
25%

Give recorded %Inh. `CC(=O)Nc1n[nH]c2ncc(-c3ccccc3)cc12`
74%

Look up %Inh of `CN1c2ccc(-c3ccc(C(=O)NCCO)cc3)cc2-c2[nH]ncc2S1(=O)=O` and report it.
37%

Tell me %Inh reported for `Cc1ccc(C)c(NC(=O)NCCNc2ccnc(Nc3ccc(F)cc3)n2)c1`
0%

Indicate the recorded %Inh value for this compound: `OCCOCCn1ccc2ncnc(Nc3ccc(Oc4cccc(Cl)c4)c(Cl)c3)c21`
0%

Identify %Inh associated with the compound COc1ccc(Nc2nccc(N3CCC(NC(=O)Nc4ccc5c(c4)OCO5)C3)n2)cc1 (stereo not drawn)
45%

// Input: `O=c1cc(N2CCOCC2)nc2n(Cc3cccc(Cl)c3)ccn12` . Output its %Inh only.
0%

Give the value of %Inh reported for the following: `Nc1nc(-c2ccc3c(N)n[nH]c3c2)cc(N2CCC[C@@H](C(=O)Nc3ccccc3)C2)n1.O=C(O)C(F)(F)F.O=C(O)C(F)(F)F`
0%

---

- Test system: MKNK1
- study.conditions: concentration: 1 μM, replicates: in singlicate; n = 1
property.name: %Inh (%)
Return type: number; implicit unit %.

With MKNK1 as the test system, provide measured %Inh for this molecule: `O=C(NCCCN1CCCC1=O)c1cnc(NCc2cc(Cl)ccc2Cl)nc1NC1CCNCC1`
0

Please report the measured %Inh for `COc1cc2c(Nc3cccc(NC(=O)c4ccccc4)c3)ncnc2cc1OCCCN1CCOCC1` tested on MKNK1.
23

Quote MKNK1 %Inh for entry `Cc1cc(N2CCC(NS(=O)(=O)c3ccc(F)cc3)CC2)nc(Nc2cccc(C#N)c2)n1.O=C(O)C(F)(F)F` .
7

---

Kindly supply the reported %Inh values for the records listed here.
- Test system: INSR
- study.conditions: concentration: 1 μM, replicates: in singlicate; n = 1
Hi! Could you send only the number? It should be in %, unit omitted.

Indicate the recorded %Inh value for this compound: Fc1cccc(COc2ccc(Nc3ncnc4nn5ccccc5c34)cc2Cl)c1 [GW689066]
8

Read off the recorded %Inh for COc1ccc(NC(=O)c2ccc(-c3cc(-c4nnc(C)o4)ccc3C)cc2)cc1 [GW595885]
0

Assign %Inh to the following record: `C[C@@H]1CCN(C(=O)CO)C[C@@H]1N(C)c1ncnc2[nH]ccc12`
0

For the compound Cl.Fc1ccccc1COc1ccc(Nc2ncnc3ccc(-c4nnc(C(F)(F)F)o4)cc23)cc1Cl [GW424170] , give its reported %Inh.
0

Report measured %Inh; entry is Clc1ccc(-c2cc(-c3c[nH]nc3-c3ccccn3)ccn2)cc1 [GW681251]
0

Please look at this compound and report its %Inh: CCc1nc(-c2cccc(N(C)S(=O)(=O)c3ccccc3)c2)c(-c2ccnc(Nc3ccc(N4CCN(C(C)=O)CC4)nc3)n2)s1 [GSK1645895]
20

For the compound CCn1c(-c2ccncc2)nc2cnccc21 [SB-735216] , give its measured %Inh value.
7

Given the compound `Cn1ccc2ncnc(Oc3ccc(NC(=O)Nc4cccnc4)c(Cl)c3)c21` , write its reported %Inh.
6

Return %Inh for the following compound: `CN1c2ccc(-c3ccc(C(=O)NCCO)cc3)cc2-c2[nH]ncc2S1(=O)=O`
0

Identify measured %Inh associated with FC(F)(F)c1ccc(-c2nn3ncccc3c2-c2ccnc(Nc3cccc(C(F)(F)F)c3)n2)cc1 [GW828205]
0

Identify %Inh associated with the compound Cc1ccc(O)cc1Nc1cc(C(F)(F)F)nc2ccc(-c3ccncc3)cc12 [GW630823]
0

Note down %Inh recorded for CC(C)N1CCC(n2cnc(-c3ccc(F)cc3)c2-c2ccnc(N)n2)CC1 [SB-223132]
0

Determine from records and report %Inh for CC(=O)Nc1n[nH]c2ncc(-c3ccccc3)cc12 [SB-548492]
0

For the compound COc1ccc(-c2oc3ncnc(N)c3c2-c2ccc(OC)cc2)cc1 [SB-589132] , report %Inh.
0

For the compound Fc1cccc(COc2ccc(Nc3ncnc4sc(-c5ccc[nH]5)cc34)cc2Cl)c1 [GW707818] , report %Inh.
13

Could you please provide reported %Inh for COc1cc2c(Nc3cccc(NC(=O)c4ccccc4)c3)ncnc2cc1OCCCN1CCOCC1 [GSK223810] ? Thanks!
10

Determine its reported %Inh: Cl.Cn1ccc(-c2cccc(Nc3ccnc4cc(-c5nccs5)ccc34)c2)n1 [GW525701]
0

In one line, give reported %Inh of the entry Cl.c1ccc(Cn2ccc3cc(Nc4ncnc5ccccc45)ccc32)cc1 [GW275568] .
12

Note %Inh for the compound shown: `O=C(CCO)NCCn1ccc2ncnc(Nc3ccc(Oc4cccc(C(F)(F)F)c4)c(Cl)c3)c21`
0

Tell me its %Inh given Cl.c1ccc(Cn2ncc3cc(Nc4ncnc5ccccc45)ccc32)cc1 [GW273749] as the entry.
3

Quote %Inh reported for COc1ccc(Nc2nccc(N3CCC(NC(=O)c4cccc(NC(C)=O)c4)C3)n2)cc1 (stereo not shown) [GSK1379732] please.
0

Quickly give me recorded %Inh for CCC(CC)(CC)n1cnc2c(N)ncnc21 [SKF-97620]
0

Answer with reported %Inh of `O=C(Nc1ccccc1)Nc1ccc(Oc2ccc3nccn3n2)cc1`
0

Fill in reported %Inh for this entry: `N#Cc1ccc(Oc2ccc(Nc3ncnc4cc[nH]c34)cc2Cl)cc1`
0

Quick one: give measured %Inh for Nc1nccc2scc(-c3ccc4c(c3)CCN4C(=O)Cc3cc(F)ccc3F)c12 [GSK2587663]
0

Give the measured %Inh for O=C(Nc1n[nH]c2nc(-c3ccco3)c(Br)cc12)c1ccc(CN2CCCC2)cc1.O=C(O)[C@H](O)[C@@H](O)C(=O)O [SB-742352]
0

Provide one value: measured %Inh of `CCc1nc(-c2cccc(C)c2)c(-c2ccnc(NC(=O)c3ccccc3)c2)s1`
29

Using known records, supply %Inh for NC(=O)c1sc(-n2cnc3ccccc32)cc1OCc1ccccc1F [GSK1024306]
0

Answer with the recorded %Inh of Nc1nc(-c2ccccn2)c(-c2ccnc3ccccc23)s1 [GW548057] only.
0

Please report %Inh for the following compound: `Cn1ccc2ncnc(Nc3ccc(Oc4cccc(Cl)c4)c(Cl)c3)c21`
16

Look up and report measured %Inh for this entry: CSc1nn2c(=O)cc(N3CCOCC3)nc2n1Cc1cccc(Cl)c1Cl [GSK2347225]
17

Recall and state the measured %Inh for Cl.Cl.c1ccc(-c2cc3ccncc3cc2OC2CCNCC2)cc1 [GSK1122999] .
0

Tell me its %Inh given Nc1nc(-c2ccc3c(N)n[nH]c3c2)cc(N2CCCCC2)n1 [GSK2228768] as the entry.
1

Give the reported value of %Inh for this record: O=C(c1ccc(-c2cc(-c3c[nH]nc3-c3ccccn3)ccn2)cc1)N1CCCC1 [GW792479]
6

---

- Tested on: BTK
- study.conditions: concentration: 1 μM, replicates: in singlicate; n = 1
property.name: %Inh (%)
Report the value in % with no unit label.

Identify measured %Inh corresponding to CS(=O)(=O)CCNCc1ccc(-c2ccc3ncnc(Nc4ccc(OCc5ccccc5)c(Cl)c4)c3c2)o1.Cl [GW574783]
0

Look up and state reported %Inh for Oc1ccc2ncnc(Nc3ccc(OCc4ccccc4)cc3)c2c1 [GI262866]
4

Provide only the value of recorded %Inh for `CN1c2ccc(-c3ccc(C(=O)NCCO)cc3)cc2-c2[nH]ncc2S1(=O)=O`
6

Provide %Inh value for the following compound: `Cn1ccc2ncnc(Nc3ccc(Oc4cccc(Cl)c4)c(Cl)c3)c21`
0

Identify measured %Inh associated with COc1ccc(NC(=O)Nc2ccc(C)c(-c3ccc(C(=O)Nc4ccncc4)cc3)c2)cc1 [GSK1398475]
0

Please report %Inh for the following compound: COc1ccc(Nc2nccc(N3CCC(NC(=O)c4cccc(NC(C)=O)c4)C3)n2)cc1 (stereo not shown) [GSK1379732]
36

Write down %Inh measured for item Cn1cc(-c2ccc3c(c2)CCN3C(=O)Cc2cccc(C(F)(F)F)c2)c2c(N)ncnc21 [GSK2606414]
0

Output %Inh of CCc1nc(-c2cccc(N(C)S(=O)(=O)c3ccccc3)c2)c(-c2ccnc(Nc3ccc(N4CCN(C(C)=O)CC4)nc3)n2)s1 [GSK1645895]
0

Give %Inh for the following compound: Cl.c1ccc(Cn2ccc3cc(Nc4ncnc5ccccc45)ccc32)cc1 [GW275568]
0

Using known records, supply %Inh for Nc1nc(-c2ccc3c(N)n[nH]c3c2)cc(N2CCC[C@@H](C(=O)Nc3ccccc3)C2)n1.O=C(O)C(F)(F)F.O=C(O)C(F)(F)F [GSK2288359]
0

Give the reported value of %Inh for this record: Cc1ccc(C)c(NC(=O)NCCNc2ccnc(Nc3ccc(F)cc3)n2)c1 [GSK1379878]
0

Give the reported %Inh for this compound. CC(C)(C)c1ccc(-n2cnc3c(N)ncnc32)cc1 [SKF-97263]
0

Give %Inh for CS(=O)(=O)CCNCc1nc(-c2ccc3ncnc(Nc4ccc(OCc5cccc(F)c5)c(Cl)c4)c3c2)cs1.Cl [GW583340]
0

Annotate the compound Fc1cccc(COc2ccc(Nc3ncnc4nn5ccccc5c34)cc2Cl)c1 [GW689066] with its measured %Inh.
15

Return %Inh (reported value) for this compound: NC(=O)c1sc(-n2cnc3ccccc32)cc1OCc1ccccc1F [GSK1024306]
0

Read off the recorded %Inh for `O=C(NCCCN1CCCC1=O)c1cnc(NCc2cc(Cl)ccc2Cl)nc1NC1CCNCC1`
0

Determine its reported %Inh: Clc1ccc(-c2cc(-c3c[nH]nc3-c3ccccn3)ccn2)cc1 [GW681251]
0

Return %Inh (reported value) for this compound: Cc1cc(N2CCC(NS(=O)(=O)c3ccc(F)cc3)CC2)nc(Nc2cccc(C#N)c2)n1.O=C(O)C(F)(F)F [GSK1653537]
0

Item Cc1ccc(NC(=O)c2cccc(C#N)c2)cc1-c1ccc(C(=O)Nc2ccncc2)cc1 [GSK1398463] : provide %Inh
0

Consider the compound Fc1cccc(COc2ccc(Nc3ncnc4sc(-c5ccc[nH]5)cc34)cc2Cl)c1 [GW707818] and give its recorded %Inh.
5

Report measured %Inh; entry is CSc1ccc(NC2=C(c3ccccc3Cl)C(=O)NC2=O)cc1 [SB-342411]
0

In one line, give reported %Inh of the entry FC(F)(F)c1ccc(-c2cc(-c3c[nH]nc3-c3ccccn3)ccn2)cc1 [GW599550] .
0

Provide only the value of recorded %Inh for Cl.O=S(=O)(c1cccc(F)c1)c1ccc(Nc2ncnc3cc(Br)sc23)cc1Cl [GSK306886]
0

Specify measured %Inh for Cc1cccc(-c2nc(Nc3ccc4[nH]nnc4c3)c3ccccc3n2)n1 [GW867587] .
0

Write down %Inh measured for item FC(F)(F)c1cc(Nc2nccc(-c3c(-c4ccc(Cl)cc4)nn4ncccc34)n2)ccc1Cl [GW829351]
0

Hello, please tell me recorded %Inh for this one: CC(=O)Nc1n[nH]c2ncc(-c3ccccc3)cc12 [SB-548492]
0

Determine its reported %Inh: CC(C)N1CCC(n2cnc(-c3ccc(F)cc3)c2-c2ccnc(N)n2)CC1 [SB-223132]
13

Indicate its recorded %Inh; the compound in question is `C[C@@H]1CCN(C(=O)CO)C[C@@H]1N(C)c1ncnc2[nH]ccc12`
0

Hello, please tell me recorded %Inh for this one: COc1ccc(NC(=O)c2ccc(-c3cc(-c4nnc(C)o4)ccc3C)cc2)cc1 [GW595885]
0

Recall and state the measured %Inh for COc1cc2c(Nc3cccc(NC(=O)c4ccccc4)c3)ncnc2cc1OCCCN1CCOCC1 [GSK223810] .
0

Note down %Inh recorded for Cl.Cn1ccc(-c2cccc(Nc3ccnc4cc(-c5nccs5)ccc34)c2)n1 [GW525701]
0

Return value of %Inh for input Nc1nccc2scc(-c3ccc4c(c3)CCN4C(=O)Cc3cc(F)ccc3F)c12 [GSK2587663] , no commentary.
0

Fill in reported %Inh for this entry: Nc1n[nH]c2nnc(-c3ccccc3)cc12 [SB-517389]
0

// fetch %Inh given entry `OCCOCCn1ccc2ncnc(Nc3ccc(Oc4cccc(Cl)c4)c(Cl)c3)c21`
0

Consider the compound O=C(c1ccc(-c2cc(-c3c[nH]nc3-c3ccccn3)ccn2)cc1)N1CCCC1 [GW792479] and give its recorded %Inh.
24

Supply recorded %Inh for `CCc1nc(-c2cccc(C)c2)c(-c2ccnc(NC(=O)c3ccccc3)c2)s1` here.
42

Query %Inh for `Clc1cc(Nc2ncnc3cc[nH]c23)ccc1OCc1ccccn1`
0

The measured values listed here are drawn from paper PMC5540273.
